- experimentalDetails: protein stability index of a GFP-peptide fusion (yeast GPS) (PSI 1-4); higher = more stable; sorted into four equal gates, so the index is relative within each strain
- conditionParameters: pdr5∆
assayMetric: protein stability index
// no unit, no text: just the number

constructSequence: VDGMAKVPIGLILQRLK [RGR1]
protein stability index: 2.67
--
constructSequence: SRFTNVSVIAPESQGQH [YMR153W/NUP53]
protein stability index: 3.39
--
constructSequence: SQVVWIRRLRVLRRLLA [RPL19A]
protein stability index: 1.46
--
constructSequence: DNEVQRTMLELITQLDG [RPT1]
protein stability index: 3.21
--
constructSequence: KVAKRTKIKPFIKVVNY [RPL27A]
protein stability index: 2.8

# protein stability index (sequence: SATSTTEQTKSKNPLSL [YLR335W/NUP2] ) is 3.01

protein stability index for AHSLSPKDYIKKLLEVH [CDC53] is 2.23

* * *

- experimentalDetails: protein stability index of a GFP-peptide fusion (yeast GPS) (PSI 1-4); higher = more stable; sorted into four equal gates, so the index is relative within each strain
- conditionParameters: doa10∆
Label yes (1) when protein stability index is at or above 2; otherwise label no (0).

For this sequence, is measured protein stability index 2 or higher? KTDLELLVERLKEDDSS [RPN1]
yes (1)

Is it the case that IITKNENFLKEVFQLRI [GAL11] has protein stability index reaching or exceeding 2?
no (0)

Identify whether the reported protein stability index of the following sequence is 2 or greater: LFKKITNVNPSKNFNVI [YML103C/NUP188]
yes (1)

Check if protein stability index >= 2 (inclusive). Item: LFQDGSASLHTRSLKYG [RRP4]
yes (1)

Does the reported protein stability index for VNARDIPPLNKSLAMEH [CSN12] fall at or above the 2 mark?
yes (1)

Does the reported protein stability index for TNILISPLNTTTKILGD [YML103C/NUP188] fall at or above the 2 mark?
yes (1)

* * *

- experimentalDetails: protein stability index of a GFP-peptide fusion (yeast GPS) (PSI 1-4); higher = more stable; sorted into four equal gates, so the index is relative within each strain
- conditionParameters: pdr5∆
Classification by protein stability index follows these ranges: low group = under 2, middle group = from 2 up to 3, high group = 3 and over

constructSequence: FCPGEIVGKSNVLVTMP [YMR129W/POM152]
labelValue: middle group
--
constructSequence: GLDQSRIPFSERKLKFS [FAS1]
labelValue: low group
--
constructSequence: HFQDQKNKKIEVYTKTI [POP7]
labelValue: middle group
--
constructSequence: AKEELNGLKDQLNEERS [YIL149C/MLP2]
labelValue: high group
--
constructSequence: YLHDNASKVLLKIFLYL [IRR1]
labelValue: low group
--
constructSequence: GDRQRLGEEHPLQVARC [RPT1]
labelValue: low group
--
constructSequence: SKEDYETLKRDRKQSQA [ARP7]
labelValue: middle group
--
constructSequence: YAKFKRNTMMIQCQIDK [RGR1]
labelValue: middle group
--
constructSequence: NVKTSVSQLYRISEKSV [RPO31]
labelValue: high group

Could you now look at the following sequence, please?
Please classify: FTITVARKYLQTRWGLP [FAS2]
low group

* * *

- experimentalDetails: protein stability index of a GFP-peptide fusion (yeast GPS) (PSI 1-4); higher = more stable; sorted into four equal gates, so the index is relative within each strain
- conditionParameters: doa10∆
assayMetric: protein stability index

constructSequence: LGLLTPEVVELCQKSPV [FAS2]
protein stability index: 2.28
//
constructSequence: KEEFIMMVNISVLISIP [PCI8]
protein stability index: 1.43
//
constructSequence: DLKEGLQDLSRYSRQFI [GRR1]
protein stability index: 3.07
//
constructSequence: TGKTLLAKAVAATIGAN [RPT4]
protein stability index: 1.46
//
constructSequence: GIEYNRVTNTTSTDFPG [RPC40]
protein stability index: 3.33
//
constructSequence: FESLPLKSAENSGKQQY [SWP82]
protein stability index: 3.17

Quick note, protein stability index for SMDTKKKHKQKKVLEID [BRN1] landed at 3.36

Record QEPSASQVKDSVTETES [SRP68] . Reported protein stability index: 3.27

Record SSEQDYSTLKELLEYSD [YCG1] , field protein stability index: 2.92

// field: protein stability index; key: EKVFTQGLNILEWLENP [FAS1] ; value = 3.18

Given item RFRKAQCPIIERLTNSL [RPS5] , the value recorded as its protein stability index is 2.32

The recorded protein stability index for TKVNNQLIKVAVHNGDR [RPL9B] is 1.92

// field: protein stability index; key: SKALLREISNFSKGDAD [SRP72] ; value = 3.06

Quick note, protein stability index for NENFRLVYDVKGRFAVH [RPS4A] landed at 3.41

Notebook: VKSFKPHLLKQGLAMVE [RRP42] , protein stability index read as 2.01

* * *

- experimentalDetails: protein stability index of a GFP-peptide fusion (yeast GPS) (PSI 1-4); higher = more stable; sorted into four equal gates, so the index is relative within each strain
- conditionParameters: doa10∆
assayMetric: protein stability index
Just the number.

constructSequence: VSIKFTNAAFPFHDPEA [ECM29]
protein stability index: 2.3
//
constructSequence: VQLSPSNPQHIIQPFLD [RGR1]
protein stability index: 2.73
//
constructSequence: ETSSDGSKSDGSAATSG [RPN1]
protein stability index: 3.39
//
constructSequence: VGTAIDSILNYAKSEFD [ECM29]
protein stability index: 2.76
//
constructSequence: KEQADIYAKQQEQLKQM [ARP7]
protein stability index: 1.75
//
constructSequence: MPGVSVRDVAAQDFINA [RPS19A]
protein stability index: 1.81

The sequence identified as KMSVTCNAQPITRSVMR [BRR2] registered its protein stability index at 2.47

Value of protein stability index reported for the sequence RYQIMLPEQLKSGKFCS [SNM1] is 2.74

For reference, reported protein stability index for CELQVETYGSMEMSEKI [RPN5] stands at 2.76

* * *

The entries below are paired with their reported protein stability index.
- experimentalDetails: protein stability index of a GFP-peptide fusion (yeast GPS) (PSI 1-4); higher = more stable; sorted into four equal gates, so the index is relative within each strain
- conditionParameters: san1∆
Number only, please.

Entry under test: YFYDLDVLKDGENNINF [BRN1] . Its protein stability index was 3.54

Notebook: SADDDVNNGNIPSQRGT [SIR3] , protein stability index read as 2.67

protein stability index reading for DRMAKYLHIRDKILQLN [PGD1] : 1.76

The recorded protein stability index for entry AAQDVWNRADNHFKDTY [FAS1] equals 3.19

* * *

- experimentalDetails: protein stability index of a GFP-peptide fusion (yeast GPS) (PSI 1-4); higher = more stable; sorted into four equal gates, so the index is relative within each strain
- conditionParameters: san1∆
# key: entry, value: protein stability index
Write the value as a bare number.

constructSequence: SQDATKVDATPEESKPI [YLR335W/NUP2]
protein stability index: 2.81

LTKAQKYLEQVLDHQRA [RPL17A] has a reported protein stability index of 2.47

protein stability index reading for KFSDLKFILQILQILNL [YML103C/NUP188] : 3.48

Item: VDSGSNDAMAGGFTAYG [RPO21] | protein stability index: 3.37

* * *

- experimentalDetails: protein stability index of a GFP-peptide fusion (yeast GPS) (PSI 1-4); higher = more stable; sorted into four equal gates, so the index is relative within each strain
- conditionParameters: doa10∆
Catalogue of protein stability index values

Observe how each entry below is paired with its result.
constructSequence: GRRLNIRQYALATAHIY [SSN8]
protein stability index: 1.53
//
constructSequence: TMGMRALLKLSVKLKQK [DIS3]
protein stability index: 1.28
//
constructSequence: AMHNSKAASSTRIFQAL [POP1]
protein stability index: 2.59

The sequence listed as WQQVTALAQQKLLTPQD [GAL11] has a reported protein stability index of 2.29

Value of protein stability index reported for the sequence HDEKSDSLNEWIKFDQE [RPN7] is 3.19

For VKIVDKDGIRQVDDFQA [PRE1] the sequence record lists protein stability index as 2.86

Per the record, QNSKFLKVNVTLDNPLL [YJL039C/NUP192] has protein stability index of 2.72

Kindly note the recorded protein stability index for NKEMETQRIMTNVIAFA [YLR018C/POM34] , which is 2.33

The sequence identified as FNIISMTLKEMYQMITM [SMC4] registered its protein stability index at 1.92

For record VAPFMIKYEFNGIPLKS [YMR129W/POM152] the listed protein stability index is 2.54

Entry QQLVDSEKRLDHFIHLR [SNF12] , protein stability index reported as 2.3

Sure, the documented protein stability index for PQTTQMFQSQSQLQPQP [YDL088C/ASM4] is 2.7

Record summary for MLMPKQERNKIHQYLFQ [RPS10B] : reported protein stability index = 2.76

Measured protein stability index, AIKELNYNRIAKICALL [NUT1] : 2.41

Noted for MMVSYPKIDEDDTWYNL [AAR2] : its protein stability index reads 3.29

protein stability index reading for LLDTNSLEENAMSTVTL [SKI6] : 3.11

protein stability index recorded for this sequence, LIRRLVRVGVLSEDKKK [RPS9A] , is 1.7

protein stability index reported for this sequence FGNSLICEDPETAKKIT [SMC2] : 2.82

The measured protein stability index associated with LESDVNIALVSKLRNNI [SRP54] reads 2.31

# protein stability index of LSHGSLEHVLLVPTASF [FAS1] = 1.24

Consider PEHLRKIINTHSDMASK [PRP8] . Its measured protein stability index is 2.01

protein stability index recorded for this sequence, SVMMQDSPASNEDDLTV [RPO31] , is 3.02

Form: sequence = MLGRAGRPRYDTFGEGI [BRR2] ; protein stability index = 3.25

The sequence listed as SNDNLDLISEILKWVQW [MED1] shows protein stability index equal to 3.03

For PLILTPPQLANQQQPPQ [SNF11] the sequence record lists protein stability index as 1.53

# sequence EEISRLQRDLIQTKEQV [YIL149C/MLP2] ; its protein stability index = 2.77

So for LYAITFRKGLGNPLLYD [QCR2] , the logged protein stability index turned out to be 1.25

# protein stability index (sequence: LCSMLQEASQVTFIFGE [MED11] ) is 2.06

Please fill in: protein stability index reported for SLLKTKLKQQSSTDIPS [RRI1] = 2.15

Entry KRHSYAQSSHIRAIRKV [RPS1A] , protein stability index reported as 2.4

The reported numbers originate from the supplement of paper PMC9732359.
